Experiment: chemical genetic growth profiling, strain panel (AID 1159580);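 further: tested at 20 µM; growth read once vehicle control cultures reached saturation at 30 °C; 1 = growth at the plate median or of vehicle wells; lower values mean less growth of the strain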
Settings: S. cerevisiae deletion strains, growth OD, locus YOR070C, strain gyp1, hits give low values
Among all 5,500 compounds or so, about 2,000 (36%) were called active. About 18% were inconclusive and are not listed. The list shows a part of the results.
So I've got a bunch of compounds here, and I need their normalized growth values.
Give bare numbers.

The examples below pair each entry with its known result.
CC(C)[C@@H]1CC[C@@H](C)C[C@H]1OC(=O)c1ccccc1 = 1.01
CC(C)N1C(=O)c2ccccc2NS1(=O)=O = 0.983
CC[C@H]1OC(=O)[C@H](C)[C@@H](O[C@H]2C[C@@](C)(OC)[C@@H](O)[C@H](C)O2)[C@H](C)[C@@H](O[C@@H]2O[C@H](C)C[C@H](N(C)C)[C@H]2O)[C@](C)(O)C[C@@H](C)/C(=N/OCOCCOC)[C@H](C)[C@@H](O)[C@]1(C)O = 1
COc1ccc(NS(=O)(=O)c2ccc(N)cc2)nn1 = 1
C=CC[C@@H]1/C=C(\C)C[C@H](C)C[C@H](OC)[C@H]2O[C@@](O)(C(=O)C(=O)N3CCCC[C@H]3C(=O)O[C@H](/C(C)=C/[C@@H]3CC[C@@H](O)[C@H](OC)C3)[C@H](C)[C@@H](O)CC1=O)[C@H](C)C[C@@H]2OC = 0.944
CC(C)=CCC/C(C)=C/CO = 0.987

For each of the compounds below, note its normalized growth.
1. CC1=C(C(=O)O)N2C(=O)[C@@H](NC(=O)[C@@H](N)c3ccc(O)cc3)[C@H]2SC1
2. CC12CCC(O)CC1CCc1ccccc12 (stereo not drawn)
3. O=C(O)CC[N+](=O)[O-]
4. CC1(C)CC23C(=O)CCC(O)C2(C)CCC13 (stereo not drawn)
5. Cc1cc(O)c2c(c1)C(=O)c1cccc(O)c1C2=O
6. CC12CCC(OC(=O)c3ccccc3)CC1CCc1ccccc12 (stereo not drawn)

1.02
0.973
0.999
0.987
1.02
1.01

Count: 2. Required value per item: normalized growth.
1. CC(C)CCCC(C)N (stereo not drawn)
2. O=C1NS(=O)(=O)c2ccccc21

[1.02, 1.02]

Count: 2. Required value per item: normalized growth.
1. CN1CCC[C@H]1c1cccnc1
2. COCC1=C(C(=O)OC(C)OC(=O)OC(C)C)N2C(=O)[C@@H](NC(=O)/C(=N\OC)c3csc(N)n3)[C@H]2SC1 (stereo partly drawn)

[1.02, 0.976]

###

For each entry below, report its normalized growth value.
Experiment: chemical genetic growth profiling, strain panel (AID 1159580);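 further: tested at 20 µM; growth read once vehicle control cultures reached saturation at 30 °C; 1 = growth at the plate median or of vehicle wells; lower values mean less growth of the strain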
Settings: S. cerevisiae deletion strains, growth OD, locus YCL061C, strain MRC1, hits give low values
Out of some 5,500 compounds screened, about 2,000 (36%) were called active. Not shown: some 18% with an inconclusive outcome. The list shows a part of the results.
Give bare numbers.

O=C(O)C1c2ccccc2C(=O)N(Cc2ccc3c(c2)OCO3)C1c1cccnc1 (centres undefined) = 0.994
O=c1c(O)c(-c2ccccc2)oc2cc(O)ccc12 = 0.799
COc1cc([C@@H]2c3cc4c(cc3[C@H](O)[C@H]3COC(=O)[C@H]23)OCO4)cc(OC)c1OC = 1.02
O=C(N[C@@H](CO)[C@H](O)c1ccc([N+](=O)[O-])cc1)C(Cl)Cl = 0.998
COc1ccc(-c2c(O)c3c(OC)c4c(cc3oc2=O)OC(C)(C)C=C4)cc1 = 0.945

Below are 4 compounds. Give each one its normalized growth.
1. ClC1C(Cl)C(Cl)C(Cl)C(Cl)C1Cl (centres undefined)
2. O=c1c(O)c(-c2ccc(O)cc2)oc2ccccc12
3. C/C(=N/O)c1ccc2c(c1)C(C)(C)CCC2(C)C
4. COc1cc(OC)c2c(OC)c(-c3ccc4c(c3)OCO4)c(=O)oc2c1

[0.894, 0.904, 0.964, 0.985]
